Origin of measurements: patent US20210388087A1

- test system: T1, Human CD137 ECD (human)
- T1 construct: also called 4-1BB
- T1 sequence (chain, as listed by the source limits assumed): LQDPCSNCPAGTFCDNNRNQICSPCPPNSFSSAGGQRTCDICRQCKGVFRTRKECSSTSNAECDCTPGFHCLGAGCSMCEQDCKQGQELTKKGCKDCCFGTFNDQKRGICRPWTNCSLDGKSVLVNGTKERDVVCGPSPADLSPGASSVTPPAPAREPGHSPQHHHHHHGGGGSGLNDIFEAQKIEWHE
- procedure details: single mutant vs template dBBDu183H
measure name: fold change of affinity (fold)
Lab book: enter the figure in fold, no units written.

The cases that follow already have their fold change of affinity on record.
## Input Tell me the measured fold change of affinity of H183/L072 VH G26F (antibody, name in Kabat numbering, V domains shown) VH: QVQLVESGGGLVQPGRSLRLSCAASFFTFSNAWMHWVRQAPGKGLEWVAQIKDKGNAYAAYYAPSVKGRFTISRDDSKNSIYLQMNSLKTEDTAVYYCHYVHYASASTVLPAFGVDAWGQGTTVTVSS VL: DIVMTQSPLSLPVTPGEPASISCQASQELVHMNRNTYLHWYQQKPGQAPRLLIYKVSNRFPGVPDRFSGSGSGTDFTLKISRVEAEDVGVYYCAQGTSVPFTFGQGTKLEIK , please.
## Output 0.3

## Input Quick one: fold change of affinity for H183/L072 VH F27H (antibody, name in Kabat numbering, V domains shown) VH: QVQLVESGGGLVQPGRSLRLSCAASGHTFSNAWMHWVRQAPGKGLEWVAQIKDKGNAYAAYYAPSVKGRFTISRDDSKNSIYLQMNSLKTEDTAVYYCHYVHYASASTVLPAFGVDAWGQGTTVTVSS VL: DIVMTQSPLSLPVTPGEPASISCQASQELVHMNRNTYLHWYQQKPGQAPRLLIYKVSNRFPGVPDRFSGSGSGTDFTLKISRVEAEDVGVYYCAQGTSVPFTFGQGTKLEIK ?
## Output 0.3

## Input Recorded fold change of affinity for H183/L072 VH P61I (antibody, name in Kabat numbering, V domains shown) VH: QVQLVESGGGLVQPGRSLRLSCAASGFTFSNAWMHWVRQAPGKGLEWVAQIKDKGNAYAAYYAISVKGRFTISRDDSKNSIYLQMNSLKTEDTAVYYCHYVHYASASTVLPAFGVDAWGQGTTVTVSS VL: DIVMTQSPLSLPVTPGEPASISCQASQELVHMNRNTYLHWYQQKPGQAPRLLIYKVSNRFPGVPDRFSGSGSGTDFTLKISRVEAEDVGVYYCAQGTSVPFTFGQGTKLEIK , please?
## Output 0.5

## Input fold change of affinity lookup needed for H183/L072 VH H35N (antibody, name in Kabat numbering, V domains shown) VH: QVQLVESGGGLVQPGRSLRLSCAASGFTFSNAWMNWVRQAPGKGLEWVAQIKDKGNAYAAYYAPSVKGRFTISRDDSKNSIYLQMNSLKTEDTAVYYCHYVHYASASTVLPAFGVDAWGQGTTVTVSS VL: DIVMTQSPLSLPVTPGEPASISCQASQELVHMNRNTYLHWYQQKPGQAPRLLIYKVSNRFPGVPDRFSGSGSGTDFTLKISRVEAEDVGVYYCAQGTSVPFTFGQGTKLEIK , thanks.
## Output 0.4

## Input Sample H183/L072 VH A57R (antibody, name in Kabat numbering, V domains shown) VH: QVQLVESGGGLVQPGRSLRLSCAASGFTFSNAWMHWVRQAPGKGLEWVAQIKDKGNAYARYYAPSVKGRFTISRDDSKNSIYLQMNSLKTEDTAVYYCHYVHYASASTVLPAFGVDAWGQGTTVTVSS VL: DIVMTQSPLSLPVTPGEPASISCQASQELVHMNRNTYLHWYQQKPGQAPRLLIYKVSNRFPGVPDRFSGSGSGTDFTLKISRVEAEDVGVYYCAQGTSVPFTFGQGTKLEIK — what was its fold change of affinity?
## Output 0.5

## Input # get_value(readout='fold change of affinity', item= H183/L072 VH V100iM (antibody, name in Kabat numbering, V domains shown) VH: QVQLVESGGGLVQPGRSLRLSCAASGFTFSNAWMHWVRQAPGKGLEWVAQIKDKGNAYAAYYAPSVKGRFTISRDDSKNSIYLQMNSLKTEDTAVYYCHYVHYASASTVLPAFGMDAWGQGTTVTVSS VL: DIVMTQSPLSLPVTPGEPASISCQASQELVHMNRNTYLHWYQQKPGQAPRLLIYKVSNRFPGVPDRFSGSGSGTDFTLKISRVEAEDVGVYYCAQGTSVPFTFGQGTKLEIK )
## Output 0

## Input Suppose we examine the binder H183/L072 VH K52Q (antibody, name in Kabat numbering, V domains shown) VH: QVQLVESGGGLVQPGRSLRLSCAASGFTFSNAWMHWVRQAPGKGLEWVAQIQDKGNAYAAYYAPSVKGRFTISRDDSKNSIYLQMNSLKTEDTAVYYCHYVHYASASTVLPAFGVDAWGQGTTVTVSS VL: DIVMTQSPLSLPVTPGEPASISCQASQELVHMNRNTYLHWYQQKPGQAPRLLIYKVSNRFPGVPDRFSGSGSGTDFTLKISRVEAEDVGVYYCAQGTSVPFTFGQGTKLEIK ; what fold change of affinity value has been reported?
## Output 0.3

## Input Find the recorded fold change of affinity belonging to H183/L072 VH Y58P (antibody, name in Kabat numbering, V domains shown) VH: QVQLVESGGGLVQPGRSLRLSCAASGFTFSNAWMHWVRQAPGKGLEWVAQIKDKGNAYAAPYAPSVKGRFTISRDDSKNSIYLQMNSLKTEDTAVYYCHYVHYASASTVLPAFGVDAWGQGTTVTVSS VL: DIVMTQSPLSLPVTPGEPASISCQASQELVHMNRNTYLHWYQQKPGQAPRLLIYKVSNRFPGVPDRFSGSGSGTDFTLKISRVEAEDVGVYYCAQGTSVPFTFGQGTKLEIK and report it.
## Output 0.2

## Input Which fold change of affinity value is on record for H183/L072 VH T28E (antibody, name in Kabat numbering, V domains shown) VH: QVQLVESGGGLVQPGRSLRLSCAASGFEFSNAWMHWVRQAPGKGLEWVAQIKDKGNAYAAYYAPSVKGRFTISRDDSKNSIYLQMNSLKTEDTAVYYCHYVHYASASTVLPAFGVDAWGQGTTVTVSS VL: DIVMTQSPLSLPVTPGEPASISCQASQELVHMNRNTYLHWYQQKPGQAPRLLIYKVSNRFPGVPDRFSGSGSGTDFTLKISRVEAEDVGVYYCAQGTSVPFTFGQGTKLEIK ?
## Output 0.3

As a next step, examine the binder that follows.
## Input Return reported fold change of affinity; argument: H183/L072 VH A56I (antibody, name in Kabat numbering, V domains shown) VH: QVQLVESGGGLVQPGRSLRLSCAASGFTFSNAWMHWVRQAPGKGLEWVAQIKDKGNAYIAYYAPSVKGRFTISRDDSKNSIYLQMNSLKTEDTAVYYCHYVHYASASTVLPAFGVDAWGQGTTVTVSS VL: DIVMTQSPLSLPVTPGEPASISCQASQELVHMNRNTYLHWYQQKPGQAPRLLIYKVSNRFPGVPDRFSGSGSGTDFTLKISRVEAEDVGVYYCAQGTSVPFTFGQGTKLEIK
## Output 0.2
